- Protocol summary: Phase I study: single- and multiple-dose plasma pharmacokinetics
- Assay type: in vivo, human
- Run parameters: human, plasma, oral, Median Tmax, across the tested doses and profile days
Metric name: Tmax

# input What does the data say about its Tmax? Entry: Cc1cc(Nc2ncc(Cl)c(Nc3ccccc3S(=O)(=O)C(C)C)n2)c(OC(C)C)cc1C1CCNCC1
# output 2 to 7 h

====

- Protocol summary: Phase I study: single- and multiple-dose plasma pharmacokinetics
- Format: in vivo, human
- Run parameters: human, plasma, oral
Metric name: half-life

# input What does the data say about its half-life? Entry: Cc1cc(Nc2ncc(Cl)c(Nc3ccccc3S(=O)(=O)C(C)C)n2)c(OC(C)C)cc1C1CCNCC1
# output 22 to 33 h
